biological target: HLA-A*02:01 (Homo sapiens, UniProt P04439, D140Y/D185E/D98H/E176V/E277Q/G131W/G231S/I119V/I121R/I166T/I218V/L300P/L318F/N151K/N90K/P208A/P217A/Q86G/Q94H/R138H/R169H/T345S); assay: MHC binding assay: UV-ligand exchange with β2m ELISA; conditions: binding of HLA-class I restricted peptides to HLA-A*02:01
Measurement Label: Peptide exchange (MHC class I binding score, peptide exchange yield)

Examples with answers:
55 (VLNVGVAEV; listed as Homo sapiens) [compound 55]
+++ (>50 = +++)
69 (YVMESMTYL; listed as Homo sapiens) [compound 69]
++++ (>75% = ++++)
43 (AVLGGKLYV; listed as Homo sapiens) [compound 43]
++++ (>75% = ++++)
66 (TLLSEIAEL; listed as Homo sapiens) [compound 66]
++++ (>75% = ++++)
83 (QLLQYVYNL; listed as Homo sapiens) [compound 83]
++++ (>75% = ++++)

Entry under test: 67 (AQLNLIWQL; listed as Homo sapiens) [compound 67] . Its Peptide exchange (MHC class I binding score, peptide exchange yield) was ++++ (>75% = ++++)

# Peptide exchange (MHC class I binding score, peptide exchange yield) of 6 (ALYDAELSQM; listed as Homo sapiens) [compound 6] = +++ (>50 = +++)

Recorded Peptide exchange (MHC class I binding score, peptide exchange yield) (substance 77 (SLRAFLMPI; listed as Homo sapiens) [compound 77] ): ++ (>20% = ++)

The recorded Peptide exchange (MHC class I binding score, peptide exchange yield) for 39 (LLPEDDTRDNV; listed as Homo sapiens) [compound 39] is +++ (>50 = +++)

response.value for 54 (RLSGEGVGPV; listed as Homo sapiens) [compound 54] (field: Peptide exchange (MHC class I binding score, peptide exchange yield)) = +++ (>50 = +++)

The substance listed as 25 (SLCPPGGIQEV; listed as Homo sapiens) [compound 25] shows Peptide exchange (MHC class I binding score, peptide exchange yield) equal to ++++ (>75% = ++++)
